- Test system: MDA435
- Test: Inhibition of Cancer Cell Growth as Measured by Cell Number (Sulforhodamine B)
- Type: cell-based, Human
- Condition label: Homo sapiens, MDA435, 48 h, 48 hours exposure, read-out: IC50
# IC50 annotations
State the answer as a number, implicitly in µg/mL.

// known answers, use as guide
1) COc1ccc(CNc2cc3c(Nc4cccc(Br)c4)c(C#N)cnc3cn2)cc1 [Example 58]    2.4
2) CC#CC(=O)Nc1cc2c(Nc3cccc(Br)c3)c(C#N)cnc2cn1 [Example 61]    0.88
3) CN(C)CC=CC(=O)Nc1cc2c(Nc3cccc(Br)c3)c(C#N)cnc2cn1 [Example 62]    0.464

Notebook: N#Cc1cnc2cnc(NCCN3CCOCC3)cc2c1Nc1cccc(Br)c1 [Example 63] , IC50 read as 49

---

- Subject of test: EGF-R Kinase (recombinant enzyme) (Homo sapiens, UniProt P00533)
- Construct: containing the EGFR cDNA encoding amino acids 645 - 1186 preceded by Met-Ala-(His)6; made in house; host or cells: Sf9 insect cells infected with recombinant baculovirus vHcEGFR52
- Sequence (P00533 669-1210): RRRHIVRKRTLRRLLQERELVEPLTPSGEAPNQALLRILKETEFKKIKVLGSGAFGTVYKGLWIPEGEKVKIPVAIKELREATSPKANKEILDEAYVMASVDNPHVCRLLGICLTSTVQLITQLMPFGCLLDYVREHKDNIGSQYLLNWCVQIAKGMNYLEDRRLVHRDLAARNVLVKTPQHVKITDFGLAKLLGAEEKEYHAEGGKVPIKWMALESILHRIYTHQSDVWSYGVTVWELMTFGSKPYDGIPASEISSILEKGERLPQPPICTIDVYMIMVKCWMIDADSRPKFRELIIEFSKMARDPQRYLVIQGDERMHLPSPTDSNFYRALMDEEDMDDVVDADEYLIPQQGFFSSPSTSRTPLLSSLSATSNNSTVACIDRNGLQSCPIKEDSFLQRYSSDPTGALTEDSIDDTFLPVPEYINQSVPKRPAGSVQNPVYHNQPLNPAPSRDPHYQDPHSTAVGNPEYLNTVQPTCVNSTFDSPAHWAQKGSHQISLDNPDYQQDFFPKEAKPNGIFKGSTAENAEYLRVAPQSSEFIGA
- Test: Inhibition of Epidermal Growth Factor Receptor Kinase (EGF-R) using recombinant enzyme, RR-SRC peptide phosphorylation with 33P-ATP
- Assay type: biochemical
- Condition label: 0.5 µM concentration of test compound; read-out: % Inhibition @ 0.5
Metric: inhibition at 0.5 µM
Don't forget the unit after the number, please.

1) CN(C)CCOc1cc2c(Nc3ccc(F)c(Cl)c3)c(C#N)cnc2cn1    31.3%

Notebook: Cc1ccc(Nc2c(C#N)cnc3ccc(OCCCN4CCOCC4)nc23)cc1O , inhibition at 0.5 µM read as 37.1%

Notebook: CCOc1ccc2ncc(C#N)c(Nc3cccc(Br)c3)c2n1 , inhibition at 0.5 µM read as 9%

Notebook: CN(C)CC=CC(=O)Nc1cnc2ncc(C#N)c(Nc3cccc(Br)c3)c2c1 , inhibition at 0.5 µM read as 47%

Notebook: N#Cc1cnc2ccc(OCCCN3CCOCC3)nc2c1Nc1cccc(Br)c1 , inhibition at 0.5 µM read as 25.4%

---

# IC50 annotations
- Test system: SW620
- Test: Inhibition of Cancer Cell Growth as Measured by Cell Number (Sulforhodamine B)
- Assay type: cell-based, Human
- Condition label: Homo sapiens, SW-620, 48 hours exposure, read-out: IC50
State the answer as a number, implicitly in µg/mL.

1. COc1ccc(CNc2cc3c(Nc4cccc(Br)c4)c(C#N)cnc3cn2)cc1    4.1

For the next question, use this compound.
Notebook: N#Cc1cnc2cnc(NCCN3CCOCC3)cc2c1Nc1cccc(Br)c1 , IC50 read as 41

---

- Subject of test: EGF-R Kinase (recombinant enzyme) (Homo sapiens, UniProt P00533)
- Construct: containing the EGFR cDNA encoding amino acids 645 - 1186 preceded by Met-Ala-(His)6; made in house; host or cells: Sf9 insect cells infected with recombinant baculovirus vHcEGFR52
- Test: Inhibition of Epidermal Growth Factor Receptor Kinase (EGF-R) using recombinant enzyme, RR-SRC peptide phosphorylation with 33P-ATP
- Format: biochemical
- Condition label: recombinant His-tagged cytoplasmic domain of EGFR; RR-SRC peptide; 90 min at room temperature; read-out: IC50
Metric: pIC50
Kindly note that pIC50 refers to -log10 of the concentration in mol/L and answer with the value alone.

1) N#Cc1cnc2ncc([N+](=O)[O-])cc2c1Nc1ccc(F)c(Cl)c1    7.00
2) CNc1cc2c(Nc3cccc(Br)c3)c(C#N)cnc2cn1    8.22
3) CC#CC(=O)Nc1cnc2ncc(C#N)c(Nc3cccc(Br)c3)c2c1    7.00
4) CN(C)CCOc1cc2c(Nc3ccc(F)c(Cl)c3)c(C#N)cnc2cn1    6.00

For the next question, use this compound.
Bench note, EGF-R Kinase (recombinant enzyme) (Homo sapiens, UniProt P00533): entry CN(C)CC=CC(=O)Nc1cnc2ncc(C#N)c(Nc3cccc(Br)c3)c2c1 , its pIC50 = 6.10
